Source of measurements: paper PMC2905418

- Tested On: T1, Qk-1-STAR (mouse, UniProt Q9QYS9 7-214)
- T1 sequence: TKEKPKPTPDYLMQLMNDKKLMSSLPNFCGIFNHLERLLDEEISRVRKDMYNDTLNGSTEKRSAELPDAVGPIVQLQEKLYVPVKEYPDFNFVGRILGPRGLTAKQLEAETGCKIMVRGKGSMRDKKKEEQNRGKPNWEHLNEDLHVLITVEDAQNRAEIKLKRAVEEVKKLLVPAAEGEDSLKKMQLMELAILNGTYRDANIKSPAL
- Test Summary: competition FP; probe C21A TGE; 10 mM Tris pH 8.0, 25 mM NaCl, 0.1 mM EDTA, 0.1 mg/mL tRNA, 5 ug/mL heparin, 0.01% IGEPAL CA630, room temperature, 3 h; EMSA gel 6% native, 0.5x TBE, 4 C
- Assay Conditions: protein: recombinant; tags: MBP fusion; chain copies: 2
Readout: pKi
Formally, pKi is defined as -log10 of the concentration c, with c in mol/L.

GET /values?readout=pKi&item= AUCUACUAAUAU (ssRNA) [C21A (A21) half-site 12-mer]
7.34
